# System: HeLa (cervical cancer) cells
# protocolText: MTT cell proliferation assay, HeLa
# Format: cell-based
# measurementConditions: Homo sapiens, 48 h, read-out: IC50 values (mean ± SEM) HeLa
pIC50: −log10 of the molar value.
Give pIC50 for every item shown.

[in] What does the data say about its pIC50? Entry: O=C(/C=C/c1cc(=O)oc2c1ccc1ccccc12)c1ccccc1 [Compound 32]
[out] < 4.70

[in] What does the data say about its pIC50? Entry: COc1ccc(C(=O)/C=C/c2cc(=O)oc3c2ccc2ccccc23)cc1 [Compound 27]
[out] < 4.70

[in] What does the data say about its pIC50? Entry: COc1cc(C(=O)/C=C/c2cc(=O)oc3c2ccc2c(OC)cccc23)cc(OC)c1OC [Compound 33]
[out] < 4.70

[in] What does the data say about its pIC50? Entry: COc1cc(OC)cc(C(=O)/C=C/c2cc(=O)oc3c2ccc2ccccc23)c1 [Compound 26]
[out] < 4.70

[in] What does the data say about its pIC50? Entry: O=C(/C=C/c1cc(=O)oc2c1ccc1ccccc12)c1ccc(Cl)cc1 [Compound 34]
[out] < 4.70

[in] What does the data say about its pIC50? Entry: COc1cccc2c1ccc1c(/C=C/C(=O)c3ccc(Cl)cc3)cc(=O)oc12 [Compound 35]
[out] < 4.70

[in] What does the data say about its pIC50? Entry: COc1cccc2c1ccc1c(/C=C/C(=O)c3ccccc3)cc(=O)oc12 [Compound 29]
[out] < 4.70

[in] What does the data say about its pIC50? Entry: COc1cccc2c1ccc1c(/C=C/C(=O)c3ccc(Cl)c(Cl)c3)cc(=O)oc12 [Compound 37]
[out] 4.76

[in] What does the data say about its pIC50? Entry: O=C(/C=C/c1cc(=O)oc2c1ccc1ccccc12)c1ccc(Cl)c(Cl)c1 [Compound 36]
[out] 4.77

[in] What does the data say about its pIC50? Entry: COc1ccc(C(=O)/C=C/c2cc(=O)oc3c2ccc2c(OC)cccc23)cc1 [Compound 28]
[out] < 4.70

[in] What does the data say about its pIC50? Entry: COc1cc(C(=O)/C=C/c2cc(=O)oc3c2ccc2ccccc23)cc(OC)c1OC [Compound 31]
[out] < 4.70

###

readoutKind: melting point

[in] What does the data say about its melting point? Entry: `COc1cc(C(=O)/C=C/c2cc(=O)oc3c2ccc2c(OC)cccc23)cc(OC)c1OC`
[out] > 260 °C

[in] What does the data say about its melting point? Entry: `COc1cc(OC)cc(C(=O)/C=C/c2cc(=O)oc3c2ccc2ccccc23)c1`
[out] 272 to 273 °C

[in] What does the data say about its melting point? Entry: `O=C(/C=C/c1cc(=O)oc2c1ccc1ccccc12)c1ccccc1`
[out] 245 to 246 °C

[in] What does the data say about its melting point? Entry: `COc1ccc(C(=O)/C=C/c2cc(=O)oc3c2ccc2c(OC)cccc23)cc1`
[out] 236 to 237 °C

[in] What does the data say about its melting point? Entry: `COc1cccc2c1ccc1c(/C=C/C(=O)c3ccccc3)cc(=O)oc12`
[out] 180 to 182 °C

###

# Tested on: MDA-MB-231 (breast cancer) cells
# protocolText: MTT cell proliferation assay, MDA-MB-231
# Assay type: cell-based
# measurementConditions: Homo sapiens, MDA-MB-231 (ER -ve), 48 h, read-out: IC50 values (mean ± SEM) MDA-MB-231
Give IC50 for every item shown.

[in] What does the data say about its IC50? Entry: COc1cccc2c1ccc1c(/C=C/C(=O)c3ccccc3)cc(=O)oc12 [Compound 29]
[out] > 20 µM

[in] What does the data say about its IC50? Entry: O=C(/C=C/c1cc(=O)oc2c1ccc1ccccc12)c1ccc(Cl)c(Cl)c1 [Compound 36]
[out] > 20 µM

[in] What does the data say about its IC50? Entry: COc1cc(C(=O)/C=C/c2cc(=O)oc3c2ccc2c(OC)cccc23)cc(OC)c1OC [Compound 33]
[out] > 20 µM

[in] What does the data say about its IC50? Entry: COc1cc(OC)cc(C(=O)/C=C/c2cc(=O)oc3c2ccc2c(OC)cccc23)c1 [Compound 30]
[out] 8.5 µM

[in] What does the data say about its IC50? Entry: COc1cccc2c1ccc1c(/C=C/C(=O)c3ccc(Cl)c(Cl)c3)cc(=O)oc12 [Compound 37]
[out] > 20 µM

[in] What does the data say about its IC50? Entry: COc1cc(C(=O)/C=C/c2cc(=O)oc3c2ccc2ccccc23)cc(OC)c1OC [Compound 31]
[out] 15.7 µM

[in] What does the data say about its IC50? Entry: O=C(/C=C/c1cc(=O)oc2c1ccc1ccccc12)c1ccccc1 [Compound 32]
[out] > 20 µM

[in] What does the data say about its IC50? Entry: COc1ccc(C(=O)/C=C/c2cc(=O)oc3c2ccc2ccccc23)cc1 [Compound 27]
[out] > 20 µM

[in] What does the data say about its IC50? Entry: COc1cc(OC)cc(C(=O)/C=C/c2cc(=O)oc3c2ccc2ccccc23)c1 [Compound 26]
[out] 16.6 µM

[in] What does the data say about its IC50? Entry: COc1ccc(C(=O)/C=C/c2cc(=O)oc3c2ccc2c(OC)cccc23)cc1 [Compound 28]
[out] > 20 µM

[in] What does the data say about its IC50? Entry: COc1cccc2c1ccc1c(/C=C/C(=O)c3ccc(Cl)cc3)cc(=O)oc12 [Compound 35]
[out] > 20 µM

[in] What does the data say about its IC50? Entry: O=C(/C=C/c1cc(=O)oc2c1ccc1ccccc12)c1ccc(Cl)cc1 [Compound 34]
[out] > 20 µM
